Hi! I'm sharing some Kd results obtained with MAP1LC3B (Homo sapiens, UniProt Q9GZQ8).
All answers are understood in µM, so give the number only.

Kd of `CC(=O)N[C@@H](CCC(N)=O)C(=O)N[C@@H](CC(N)=O)C(=O)N[C@@H](CC(C)C)C(=O)N[C@@H](CO)C(=O)N[C@@H](CCCNC(=N)N)C(=O)N[C@@H](COP(=O)(O)O)C(=O)N[C@@H](Cc1c[nH]c2ccccc12)C(=O)N[C@@H](Cc1c[nH]cn1)C(=O)N[C@@H](CC(=O)O)C(=O)N[C@H](C(=O)N[C@@H](CCC(N)=O)C(=O)N[C@H](C(=O)N[C@@H](CO)C(=O)N[C@@H](CO)C(=O)N[C@@H](C)C(=O)N[C@@H](Cc1ccc(O)cc1)C(N)=O)C(C)C)C(C)C` on MAP1LC3B (Homo sapiens, UniProt Q9GZQ8)? 61

Kd of `CC(=O)N[C@@H](Cc1ccc(O)cc1)C(=O)N[C@@H](CCCCN)C(=O)N[C@@H](CCCCN)C(=O)N[C@@H](CCC(N)=O)C(=O)N[C@@H](CC(C)C)C(=O)N[C@@H](CCCCN)C(=O)N[C@@H](CCCNC(=N)N)C(=O)N[C@@H](Cc1ccccc1)C(=O)N[C@@H](CO)C(=O)N[C@H](C(=O)N[C@@H](CCC(=O)O)C(=O)N[C@@H](CCC(=O)O)C(=O)N[C@@H](Cc1ccccc1)C(=O)N[C@H](C(=O)N[C@@H](CC(C)C)C(=O)N[C@@H](CC(C)C)C(=O)O)C(C)C)[C@@H](C)O` on MAP1LC3B (Homo sapiens, UniProt Q9GZQ8)? 7.1

Kd of `CC(=O)N[C@@H](Cc1ccc(O)cc1)C(=O)N[C@@H](CCCCN)C(=O)N[C@@H](CCCCN)C(=O)N[C@@H](CCC(N)=O)C(=O)N[C@@H](CC(C)C)C(=O)N[C@@H](CCCCN)C(=O)N[C@@H](CCCNC(=N)N)C(=O)N[C@@H](Cc1ccccc1)C(=O)N[C@@H](COP(=O)(O)O)C(=O)N[C@H](C(=O)N[C@@H](CCC(=O)O)C(=O)N[C@@H](CCC(=O)O)C(=O)N[C@@H](Cc1ccccc1)C(=O)N[C@H](C(=O)N[C@@H](CC(C)C)C(=O)N[C@@H](CC(C)C)C(=O)O)C(C)C)[C@@H](C)O` on MAP1LC3B (Homo sapiens, UniProt Q9GZQ8)? 1.9

====

Could you please report measured Promiscuity for the items listed next?
system: bait protein domains; assay: Phosphomimetic ProP-PD selection against the PM_HD2 library (NGS counts, confidence level, PES), any bait; type: binding, human; conditions: bait ABL1_SH3__P00519_60_121; selection results by peptide

Please give the measured Promiscuity for this sequence: `PATSPPKEPPQLEALQ` 2

Please give the measured Promiscuity for this sequence: `PSYSPPDTSPANRSFV` 1

Please give the measured Promiscuity for this sequence: `PATSPPKTPPQLEALQ` 3

Please give the measured Promiscuity for this sequence: `DAPPHYPPPSTAAASP` 3

Please give the measured Promiscuity for this sequence: `DAPPHYPPPSTAAAEP` 4

====

Target: Clathrin NTD (Homo sapiens)
Construct: GST (cleaved yes); made in house; host or cells: Escherichia coli BL21-Gold(DE3)
Sequence (Q00610 1-364): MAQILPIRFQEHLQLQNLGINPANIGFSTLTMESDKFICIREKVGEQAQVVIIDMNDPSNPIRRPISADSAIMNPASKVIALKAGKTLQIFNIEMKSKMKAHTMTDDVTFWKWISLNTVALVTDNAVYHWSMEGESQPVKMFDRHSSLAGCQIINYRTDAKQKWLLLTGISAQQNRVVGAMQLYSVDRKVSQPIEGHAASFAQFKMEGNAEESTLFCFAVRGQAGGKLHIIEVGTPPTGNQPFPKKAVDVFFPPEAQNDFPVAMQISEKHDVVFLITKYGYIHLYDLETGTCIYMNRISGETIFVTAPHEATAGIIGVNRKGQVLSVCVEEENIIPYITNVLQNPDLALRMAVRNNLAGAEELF
Test: FP displacement assay, clathrin NTD
Format: binding
Description: FP experiments were performed as described previously (Kliche et al, [2021]). Shortly, in order to monitor the binding event, FITC‐labelled peptides were used (excitation 495 nm, emission: 535 nm) and the FP signal was recorded in mP on a SpectraMax iD5 Multi‐Mode Microplate Reader (Molecular Devices) by measuring the emitted light in two angels. The measurements were performed at room temperature and prepared in nonbinding black half area 96‐well microplates (Corning®; 50 μl/well). […]
Residues, ends and D or L forms follow the SMILES beside them.
READOUT: pKd
FYI, pKd means -log10 of a concentration in mol per litre.

Please give the measured pKd for this compound: CC[C@H](C)[C@H](NC(=O)[C@H](CC(C)C)NC(=O)[C@H](CC(N)=O)NC(=O)CNC(=O)CNC(=O)[C@H](Cc1ccc(O)cc1)NC(C)=O)C(=O)N[C@H](C(=O)N[C@@H](Cc1ccccc1)C(=O)N[C@@H](CCC(=O)O)C(=O)N1CCC[C@H]1C(=O)N[C@@H](CC(C)C)C(=O)N[C@@H](CCC(N)=O)C(=O)N1CCC[C@H]1C(=O)NCC(=O)N[C@@H](CCC(=O)O)C(=O)N[C@@H](Cc1ccccc1)C(N)=O)[C@@H](C)O [HURP832–846 E] (Ac-YGGNLITFEPLQPGEF-NH2) 4.64

Please give the measured pKd for this compound: CC[C@H](C)[C@H](NC(=O)[C@H](CC(C)C)NC(=O)[C@H](CC(N)=O)NC(=O)CNC(=O)CNC(=O)[C@H](Cc1ccc(O)cc1)NC(C)=O)C(=O)N[C@H](C(=O)N[C@@H](Cc1ccccc1)C(=O)N[C@@H](CO)C(=O)N1CCC[C@H]1C(=O)N[C@@H](CC(C)C)C(=O)N[C@@H](CCC(N)=O)C(=O)N1CCC[C@H]1C(=O)NCC(=O)N[C@@H](CCC(=O)O)C(=O)N[C@@H](Cc1ccccc1)C(N)=O)[C@@H](C)O [HURP832–846 wt] (Ac-YGGNLITFSPLQPGEF-NH2) 3.87

====

target: MAP1LC3A (Homo sapiens); construct: GST (cleaved yes); made in house; host or cells: Escherichia coli BL21-Gold(DE3); assay: FP displacement assay, MAP1LC3A; assay type: binding; details: Fig 4B, MAP1LC3A ATG8, FP displacement; technical triplicates; read-out: IC50 values of displacement curves, with SEM
Residues, ends and D or L forms follow the SMILES beside them.
Could you please report measured pIC50 for the items listed next?
FYI, pIC50 means -log10 of a concentration in mol per litre.

pIC50 of `CC(=O)N[C@@H](Cc1ccc(O)cc1)C(=O)N[C@@H](CCCCN)C(=O)N[C@@H](CCCCN)C(=O)N[C@@H](CCC(N)=O)C(=O)N[C@@H](CC(C)C)C(=O)N[C@@H](CCCCN)C(=O)N[C@@H](CCCNC(=N)N)C(=O)N[C@@H](Cc1ccccc1)C(=O)N[C@@H](COP(=O)(O)O)C(=O)N[C@H](C(=O)N[C@@H](CCC(=O)O)C(=O)N[C@@H](CCC(=O)O)C(=O)N[C@@H](Cc1ccccc1)C(=O)N[C@H](C(=O)N[C@@H](CC(C)C)C(=O)N[C@@H](CC(C)C)C(=O)O)C(C)C)[C@@H](C)O` on MAP1LC3A (Homo sapiens)? 5.26

pIC50 of `CC(=O)N[C@@H](Cc1ccc(O)cc1)C(=O)N[C@@H](CCCCN)C(=O)N[C@@H](CCCCN)C(=O)N[C@@H](CCC(N)=O)C(=O)N[C@@H](CC(C)C)C(=O)N[C@@H](CCCCN)C(=O)N[C@@H](CCCNC(=N)N)C(=O)N[C@@H](Cc1ccccc1)C(=O)N[C@@H](CO)C(=O)N[C@H](C(=O)N[C@@H](CCC(=O)O)C(=O)N[C@@H](CCC(=O)O)C(=O)N[C@@H](Cc1ccccc1)C(=O)N[C@H](C(=O)N[C@@H](CC(C)C)C(=O)N[C@@H](CC(C)C)C(=O)O)C(C)C)[C@@H](C)O` on MAP1LC3A (Homo sapiens)? 4.77

pIC50 of CC(=O)N[C@@H](CCC(N)=O)C(=O)N[C@@H](CC(N)=O)C(=O)N[C@@H](CC(C)C)C(=O)N[C@@H](CO)C(=O)N[C@@H](CCCNC(=N)N)C(=O)N[C@@H](CCC(=O)O)C(=O)N[C@@H](Cc1c[nH]c2ccccc12)C(=O)N[C@@H](Cc1c[nH]cn1)C(=O)N[C@@H](CC(=O)O)C(=O)N[C@H](C(=O)N[C@@H](CCC(N)=O)C(=O)N[C@H](C(=O)N[C@@H](CO)C(=O)N[C@@H](CO)C(=O)N[C@@H](C)C(=O)N[C@@H](Cc1ccc(O)cc1)C(N)=O)C(C)C)C(C)C [TPD52L2_91–106 E] (Ac-QNLSREWHDVQVSSAY-NH2) on MAP1LC3A (Homo sapiens)? 3.65

pIC50 of CC(=O)N[C@@H](Cc1ccc(O)cc1)C(=O)N[C@@H](CCCCN)C(=O)N[C@@H](CCCCN)C(=O)N[C@@H](CCC(N)=O)C(=O)N[C@@H](CC(C)C)C(=O)N[C@@H](CCCCN)C(=O)N[C@@H](CCCNC(=N)N)C(=O)N[C@@H](Cc1ccccc1)C(=O)N[C@@H](CCC(=O)O)C(=O)N[C@H](C(=O)N[C@@H](CCC(=O)O)C(=O)N[C@@H](CCC(=O)O)C(=O)N[C@@H](Cc1ccccc1)C(=O)N[C@H](C(=O)N[C@@H](CC(C)C)C(=O)N[C@@H](CC(C)C)C(=O)O)C(C)C)[C@@H](C)O [ATG4C444–458 E] (Ac-YKKQLKRFETEEFVLL-OH) on MAP1LC3A (Homo sapiens)? 4.96
